assay: Antioxidant activity assessed as DPPH radical scavenging activity incubated for 30 mins under dark condition by absorbance based analysis
Type: functional
readout-label: EC50 (µM)

INSERT INTO results (molecule, readout_label, reading) VALUES
  ('Cc1c(C)c2c(c(C)c1O)CCC(C)(C(=O)O)O2 (stereo not given)', 'EC50', 29),
  ('O=c1c(O)c(-c2ccc(O)c(O)c2)oc2cc(O)cc(O)c12', 'EC50', 16),
  ('O=C(Nc1ccc(O)c(O)c1)c1ccc(O)c(O)c1', 'EC50', 12),
  ('Oc1ccc(NC(=S)c2ccc(O)c(O)c2)cc1O', 'EC50', 9),
  ('O=C(Nc1ccc(O)c(O)c1)c1cc(O)cc(O)c1', 'EC50', 23),
  ('Oc1ccc(C(=S)Nc2ccc(O)c(O)c2)cc1', 'EC50', 14),
  ('Oc1cc(O)cc(/C=C/c2ccc(O)c(O)c2)c1', 'EC50', 37),
  ('Oc1cc(O)cc(C(=S)Nc2ccc(O)c(O)c2)c1', 'EC50', 17),
  ('O/N=C(/Nc1ccc(O)c(O)c1)c1ccc(O)c(O)c1', 'EC50', 16),
  ('Oc1cccc(C(=S)Nc2ccc(O)c(O)c2)c1', 'EC50', 10);
